# assayOverview: Toxicity liver stage against HepG2, at 10uM
# Type: cell-based
# Set-up: test concentration 10 uM, cell line HepG2-A16-CD81EGFP
# conditionContext: human, HepG2-A16-CD81EGFP cells; read-out: INHIBITION
experimentalReadout: cytotoxicity at 10 µM (%)
# unit: % | format: bare number

The examples below pair each entry with its known result.
[[record]]
compound = "Cc1ccc(S(=O)(=O)N2CCCC(c3n[nH]cc3C(=O)N(C)C)C2)cc1 (configuration not stated)"
reportedmeasurement = 6.91

[[record]]
compound = "CN1CCN(c2nsc(-c3cccnc3)c2C#N)CC1"
reportedmeasurement = 0.916

[[record]]
compound = "c1ccc(N2CCC(NCc3cccc4cn[nH]c34)C2)cc1 (configuration not stated)"
reportedmeasurement = 13.6

[[record]]
compound = "COc1cccc(-c2noc3c2CN(c2nc(C)ncc2C)CC3)c1"
reportedmeasurement = 45.1

[[record]]
compound = "c1csc(CNCC2COCc3c(-c4ccoc4)nnn3C2)n1 (configuration not stated)"
reportedmeasurement = -107


Shifting focus to the compound that follows.
Q: Supply measured cytotoxicity at 10 µM of O=C(Nc1ccncc1)NC1CCN(c2ccccc2OC(F)F)C1 (configuration not stated) in your reply.
Ans: 15.6

* * *

# assayOverview: Toxicity liver stage against HepG2, at 10uM
# Assay type: cell-based
# Set-up: test concentration 10 uM, cell line HepG2-A16-CD81EGFP
# conditionContext: human, HepG2-A16-CD81EGFP cells; read-out: INHIBITION
experimentalReadout: cytotoxicity at 10 µM (%)
Give just the number in %; leave the unit off.

Solved cases below.
[[record]]
compound = "COc1ncccc1NC(=O)N1CCC(CNC(C)=O)CC1"
experimentalreadout = "cytotoxicity at 10 µM"
unittag = "%"
reportedmeasurement = 3.61

[[record]]
compound = "COc1ccc(CNc2c(C)nn(C(C)C)c2C)cc1OC"
experimentalreadout = "cytotoxicity at 10 µM"
unittag = "%"
reportedmeasurement = -38.5

[[record]]
compound = "COc1ccc(CN2CCC3(CC2)CCN(CCN(C)C)C3=O)cc1"
experimentalreadout = "cytotoxicity at 10 µM"
unittag = "%"
reportedmeasurement = -4.25

[[record]]
compound = "CC(C)=CCN1CCC2(CC1)c1ccccc1[C@@H](N1CCSCC1)[C@@H]2O"
experimentalreadout = "cytotoxicity at 10 µM"
unittag = "%"
reportedmeasurement = 7.25

[[record]]
compound = "Cc1ncsc1C(=O)N1CCC(O)(Cn2c(C)cc3ccncc32)CC1"
experimentalreadout = "cytotoxicity at 10 µM"
unittag = "%"
reportedmeasurement = 9.59

[[record]]
compound = "O=C(Cc1cc2c(cc1Cl)OCCO2)N1CC[C@H](CO)[C@H](O)C1"
experimentalreadout = "cytotoxicity at 10 µM"
unittag = "%"
reportedmeasurement = 7.96


Q: // Input: CC(C)Cc1nc(NC(=O)c2cc(-c3cccnc3)n[nH]2)n[nH]1 . Output its cytotoxicity at 10 µM only.
Ans: 2.34

Q: Please give the documented cytotoxicity at 10 µM of c1cnc(N2CC[C@@H]3CN(Cc4ccncc4)CCO[C@@H]3C2)nc1
Ans: 5.53

Q: Return cytotoxicity at 10 µM for the following compound: Cc1nc([C@H]2C[C@@H]3CCN(Cc4cnn(C)c4)C[C@H]3O2)sc1C
Ans: -1.96

Q: Determine its reported cytotoxicity at 10 µM: CC(c1nc(C2CC2)no1)N1CCN(Cc2cccc(C#N)c2)CC1 (stereo unspecified)
Ans: 3.92

Q: Write down cytotoxicity at 10 µM measured for item Cc1nc(C)c2c(n1)CCN(Cc1nccn1C)CC2
Ans: -122

* * *

# assayOverview: Toxicity liver stage against HepG2, at 10uM
# Format: cell-based
# Parameters: test concentration 10 uM, cell line HepG2-A16-CD81EGFP
# conditionContext: human, HepG2-A16-CD81EGFP cells; read-out: INHIBITION
experimentalReadout: cytotoxicity at 10 µM (%)
State the answer as a number, implicitly in %.

Answered cases to consult:
[[record]]
compound = "CCn1nc2nc(SCC(=O)O)cc(C(F)F)c2c1C"
experimentalreadout = "cytotoxicity at 10 µM"
reportedmeasurement = -3.78

[[record]]
compound = "COc1ccccc1C(=O)N1C[C@@H]2CCCCN(CC(N)=O)[C@@H]2C1"
experimentalreadout = "cytotoxicity at 10 µM"
reportedmeasurement = -4.43

[[record]]
compound = "O=C(c1cccc(F)c1F)N1CCn2c(nnc2C(F)(F)F)C1"
experimentalreadout = "cytotoxicity at 10 µM"
reportedmeasurement = -8.22

[[record]]
compound = "Cn1ncnc1CNc1ccc2c(c1)N(C(=O)OC(C)(C)C)CCC2"
experimentalreadout = "cytotoxicity at 10 µM"
reportedmeasurement = 6.37

[[record]]
compound = "O=C(NCc1ccco1)N1CCC(n2ccc(C(F)(F)F)n2)CC1"
experimentalreadout = "cytotoxicity at 10 µM"
reportedmeasurement = 12.2


Turning now to a further record.
Q: Supply reported cytotoxicity at 10 µM belonging to this compound: Cc1noc(C)c1C(=O)N[C@@H]1CC[C@@H](Oc2ccccc2)[C@@H]1O
Ans: 0.395

* * *

# assayOverview: Toxicity liver stage against HepG2, at 10uM
# Format: cell-based
# Design: test concentration 10 uM, cell line HepG2-A16-CD81EGFP
# conditionContext: human, HepG2-A16-CD81EGFP cells; read-out: INHIBITION
experimentalReadout: cytotoxicity at 10 µM (%)
Report the figure in % without appending any unit label.

[[record]]
compound = "CN(CCc1ccccn1)C(=O)Nc1cccnc1-n1cccn1"
experimentalreadout = "cytotoxicity at 10 µM"
unittag = "%"
reportedmeasurement = 3.25

[[record]]
compound = "CC(O)CN(C(=O)NC1CCN(CC2CCCCC2)CC1)C(C)C (centres undefined)"
experimentalreadout = "cytotoxicity at 10 µM"
unittag = "%"
reportedmeasurement = 7.46

[[record]]
compound = "CC(C)N1CCC(Cc2cc(-c3cccc(C(=O)O)c3)ncn2)CC1"
experimentalreadout = "cytotoxicity at 10 µM"
unittag = "%"
reportedmeasurement = -8.99

[[record]]
compound = "CC(C)=CCNC1CCCN(c2ccc(C)nn2)C1 (centres undefined)"
experimentalreadout = "cytotoxicity at 10 µM"
unittag = "%"
reportedmeasurement = 5.23

[[record]]
compound = "CCS(=O)(=O)c1ncc(CN(C)Cc2cccc(OC)c2)n1CCOC"
experimentalreadout = "cytotoxicity at 10 µM"
unittag = "%"
reportedmeasurement = -0.636


Q: Input COCCC(=O)N1CCC2(COCc3c(C)nc(NCC4CC4)nc32)C1 (centres undefined) , output reported cytotoxicity at 10 µM.
Ans: 2.19

Q: Tell us which cytotoxicity at 10 µM value is on record for CCc1nc(C)c(CC(=O)N2CCC3(CC2)OCCCC3O)c(=O)[nH]1 (centres undefined)
Ans: 9.16

* * *

Form field: cytotoxicity at 10 µM (one value per entry).
# assayOverview: Toxicity liver stage against HepG2, at 10uM
# Format: cell-based
# Set-up: test concentration 10 uM, cell line HepG2-A16-CD81EGFP
# conditionContext: human, HepG2-A16-CD81EGFP cells; read-out: INHIBITION
Numeric answer only, unit % assumed.

Q: Specify reported cytotoxicity at 10 µM for the molecule shown: CC(C)Oc1ncccc1CNC(=O)c1ccc(=O)[nH]n1
Ans: -23.8

Q: Fill in cytotoxicity at 10 µM for record COC1CN(C(=O)Cc2cccs2)CCC(=O)N(C)c2ccccc21 (configuration not stated)
Ans: -11.6

Q: Kindly indicate its recorded cytotoxicity at 10 µM. Item: CCCN(CCc1ccccc1)c1ncnc2oc(C)nc12
Ans: 8.74

Q: Output cytotoxicity at 10 µM of O=C(NC[C@]12COC[C@H]1CN(Cc1nccs1)C2)c1ccccc1
Ans: -11.8

Q: Give a short answer stating reported cytotoxicity at 10 µM for CCc1ncc2c(n1)CN(C(C)C(=O)Nc1ccc(Cl)cn1)CC2 (configuration not stated) .
Ans: -0.915

Q: Tell me cytotoxicity at 10 µM reported for COc1ccc(CNC(C)c2ccc(Cl)c(Cl)c2)c(OC)c1OC (configuration not stated)
Ans: 14.2

Q: Please look at this molecule and report its cytotoxicity at 10 µM: N#Cc1cn[nH]c1NCc1cc(I)cc(I)c1O
Ans: 1.11

Q: Dear colleague, please send me the reported cytotoxicity at 10 µM for c1cncc(N2CCCC3(CCN(CC4CCCO4)CC3)C2)c1 (configuration not stated) when you can.
Ans: 5.15

Q: Output measured cytotoxicity at 10 µM for this item: CC(CN1CCOCC1)OC(=O)c1cccc2cn[nH]c12 (configuration not stated)
Ans: -1.08

Q: Give the reported value of cytotoxicity at 10 µM for this record: COCCn1cc(-c2cc(C(=O)N3CCCC3)c3ccccn23)nc1C
Ans: 8.61

Q: Determine from records and report cytotoxicity at 10 µM for Cc1nc(CNC(=O)NCC(O)c2cccc(Cl)c2)cs1 (configuration not stated)
Ans: -16.1

Q: Given CC(=O)N1CCN(C(=O)c2csc(-c3ccc(C)cc3C)n2)CC1 , respond with its cytotoxicity at 10 µM.
Ans: -18.8

Q: Consider the molecule Cc1ccc2nc(C(=O)N3CC(n4nc(C)cc4C)C3)cn2c1 and give its recorded cytotoxicity at 10 µM.
Ans: 5.53

Q: Read off the recorded cytotoxicity at 10 µM for COCCCNC(=O)c1cn(C(C)C)cc2c(=O)[nH]nc1-2
Ans: -4.45
